Some compounds, each annotated with its measured MBC.
Test system: Actinomyces viscosus
assay_procedure: Evaluated for the in vitro minimum bactericidal concentration (MBC) against periopathogenic Actinomycetes viscosus bacteria
Assay type: functional
measure: MBC (µg/mL)

In [3]: df
Out[3]:
                                   compound  measure  units_text  measured_value
0    Oc1c(Br)cc(Br)cc1-c1nc2cc(Cl)ccc2[nH]1      MBC       µg/mL             0.5
1  Oc1c(Br)cc(Br)cc1-c1nc2cc(C(F)(F)F)ccc2[nH]1      MBC       µg/mL             0.1
2  CCCCCCCCC(=O)c1ccc(O)c(-c2nc3cc(C)ccc3[nH]2)c1      MBC       µg/mL              10
3  CCCCCCCC(=O)c1ccc(O)c(-c2nc3cc(C(F)(F)F)ccc3[nH]2)c1      MBC       µg/mL             0.5
4  O=C(Nc1ccc(Br)cc1)c1cc(Br)cc(Br)c1O [TRIBROMSALAN]      MBC       µg/mL               1
